target: norepinephrine transporter (UniProt Q9WTR4); test: Inhibition of 0.5 nM [3H]nisoxetine binding to the norepinephrine transporter; conditions: read-out: IC50 NE [3H]Nisoxetine; 0.5 nM [3H]nisoxetine; mean ± standard error where given
Structures can show the parent of a compound that is named as a salt.

| COMPOUND | STUDY_TARGET | IC50 [nM] |
| --- | --- | --- |
| COC(=O)[C@@H]1[C@H]2CC[C@@H](C[C@H]1c1ccc(I)cc1)N2C.Cc1ccc(S(=O)(=O)O)cc1 [2b, tosylate] | norepinephrine transporter (UniProt Q9WTR4) | 52.4 |
| COC(=O)C1C(c2ccccc2)CC2CCC1N2C (stereo not shown) | norepinephrine transporter (UniProt Q9WTR4) | 2080 |
| COC(=O)[C@@H]1[C@H]2CC[C@@H](C[C@H]1c1ccc(C)cc1)N2C [2d, tosylate] | norepinephrine transporter (UniProt Q9WTR4) | 275 |
| COC(=O)[C@@H]1[C@H]2CC[C@@H](C[C@H]1c1ccc(F)cc1)N2C | norepinephrine transporter (UniProt Q9WTR4) | 1230 |

###

target: serotonin transporter (UniProt P31652); format: binding; details: read-out: IC50 5-HT [3H]Paroxetine; 0.2 nM [3H]paroxetine; mean ± standard error where given
Counter-ions that a name gives are not always drawn.
As shown below, each of these compounds has a reported IC50 value.

| COMPOUND | IC50 (µM) |
| --- | --- |
| COC(=O)[C@@H]1[C@H]2CC[C@@H](C[C@H]1c1ccc(F)cc1)N2C [2a] | 5.06 |
| COC(=O)[C@@H]1[C@H]2CC[C@@H](C[C@H]1c1ccc(Cl)cc1)N2C [2c, tosylate] | 0.998 |
| COC(=O)[C@@H]1[C@H]2CC[C@@H](C[C@H]1c1ccc(I)cc1)N2C.Cc1ccc(S(=O)(=O)O)cc1 [2b, tosylate] | 0.0649 |

###

// values below are reported pIC50
target: dopamine transporter (UniProt P23977); construct: other: 0.5 nM [3H]WIN 35,428; mean ± standard error where given; format: binding; details: read-out: IC50 DA [3H]WIN 35,428; 0.5 nM [3H]WIN 35,428; mean ± standard error where given
pIC50: −log10 of the molar value. Counter-ions that a name gives are not always drawn.

| MOLECULE | pIC50 |
| --- | --- |
| COC(=O)[C@@H]1[C@H]2CC[C@@H](C[C@H]1c1ccc(Cl)cc1)N2C [2c, tosylate] | 8.62 |
| COC(=O)[C@@H]1[C@H]2CC[C@@H](C[C@H]1c1ccc(C)cc1)N2C [2d, tosylate] | 7.99 |
| COC(=O)[C@@H]1[C@H]2CC[C@@H](C[C@H]1c1ccc(I)cc1)N2C.Cc1ccc(S(=O)(=O)O)cc1 [2b, tosylate] | 8.55 |
| COC(=O)C1C(c2ccccc2)CC2CCC1N2C (stereo not shown) | 7.00 |
